- Procedure Summary: Single intravenous dose escalation of P5P, plasma pharmacokinetics (Examples Two and Three)
- Format: in vivo, human
- Experimental Conditions: Group 1, P5P 1 mg/kg single iv; plasma PA; mean

Compound: Cc1ncc(CO)c(C(=O)O)c1O [PA, 4-pyridoxic acid]
Kel [h⁻¹]: 0.311

---

- Procedure Summary: Single intravenous dose escalation of P5P, plasma pharmacokinetics (Examples Two and Three)
- Format: in vivo, human
- Experimental Conditions: both sexes, human, plasma, iv, 10 mg/kg, Group 3, P5P 10 mg/kg single iv; plasma PAL; mean; read-out: T½ (converted)

Compound Smiles: Cc1ncc(CO)c(C=O)c1O
Result Unit: h
half-life: 4.2

---

- Procedure Summary: Single intravenous dose escalation of P5P, plasma pharmacokinetics (Examples Two and Three)
- Format: in vivo, human
- Experimental Conditions: both sexes, human, plasma, iv, plasma, over all single iv doses of P5P (1-20 mg/kg); read-out: apparent elimination half-life (converted)
Recorded half-life values for a group of compounds are listed next.

Compound: Cc1ncc(CO)c(C=O)c1O
half-life: ~4 h
--
Compound: Cc1ncc(COP(=O)(O)O)c(C=O)c1O [P5P, Pyridoxal 5′-phosphate, reference compound]
half-life: 5 to 6 h
--
Compound: Cc1ncc(CO)c(C(=O)O)c1O
half-life: 2 to 3.5 h

---

- Procedure Summary: Single intravenous dose escalation of P5P, plasma pharmacokinetics (Examples Two and Three)
- Format: in vivo, human
- Experimental Conditions: both sexes, human; Group 4, P5P 20 mg/kg single iv; plasma PAL; mean; read-out: AUC (0-t)

Compound Smiles: Cc1ncc(CO)c(C=O)c1O
AUC(0-t) [ng·h/mL]: 94400

---

- Procedure Summary: Single intravenous dose escalation of P5P, plasma pharmacokinetics (Examples Two and Three)
- Assay type: in vivo, human
- Experimental Conditions: both sexes, human, plasma, iv, 5 mg/kg, Group 2, P5P 5 mg/kg single iv; plasma P5P; mean

Compound: Cc1ncc(COP(=O)(O)O)c(C=O)c1O [P5P, Pyridoxal 5′-phosphate, reference compound]
clearance / mL/min: 32.1

---

- Procedure Summary: Single intravenous dose escalation of P5P, plasma pharmacokinetics (Examples Two and Three)
- Format: in vivo, human
- Experimental Conditions: both sexes, human, plasma, iv, 5 mg/kg, Group 2, P5P 5 mg/kg single iv; plasma P5P; mean
Property: MRT (h)

Compound: Cc1ncc(COP(=O)(O)O)c(C=O)c1O [P5P, Pyridoxal 5′-phosphate, reference compound]
Data Value: 3.52

---

- Procedure Summary: Single intravenous dose escalation of P5P, plasma pharmacokinetics (Examples Two and Three)
- Type: in vivo, human
- Experimental Conditions: both sexes, human, plasma, iv, 1 mg/kg, Group 1, P5P 1 mg/kg single iv; plasma P5P; mean

Compound: Cc1ncc(COP(=O)(O)O)c(C=O)c1O [P5P, Pyridoxal 5′-phosphate, reference compound]
Vd [L]: 13

---

- Procedure Summary: Single intravenous dose escalation of P5P, plasma pharmacokinetics (Examples Two and Three)
- Assay type: in vivo, human
- Experimental Conditions: both sexes, human, plasma, iv, 10 mg/kg, Group 3, P5P 10 mg/kg single iv; plasma P5P; mean

Compound: Cc1ncc(COP(=O)(O)O)c(C=O)c1O [P5P, Pyridoxal 5′-phosphate, reference compound]
Result Unit: mL/min
clearance: 35.2

---

- Procedure Summary: clinical
- Parameters: species or system human
- Experimental Conditions: human, in vivo, iv, 10 mg/kg, AUC0-t
Property: AUC(0-t) (ng·h/mL)

Compound: Cc1ncc(CO)c(C=O)c1O
Data Value: 22300
//
Compound: Cc1ncc(COP(=O)(O)O)c(C=O)c1O [P5P, Pyridoxal 5′-phosphate, reference compound]
Data Value: 278000
//
Compound: Cc1ncc(CO)c(C(=O)O)c1O
Data Value: 20700
